# measurement_target: TthMTA1-Ptep2 (ITC) (Tetrahymena thermophila, UniProt Q22GC0)
# Sequence (Q22GC0 57-428): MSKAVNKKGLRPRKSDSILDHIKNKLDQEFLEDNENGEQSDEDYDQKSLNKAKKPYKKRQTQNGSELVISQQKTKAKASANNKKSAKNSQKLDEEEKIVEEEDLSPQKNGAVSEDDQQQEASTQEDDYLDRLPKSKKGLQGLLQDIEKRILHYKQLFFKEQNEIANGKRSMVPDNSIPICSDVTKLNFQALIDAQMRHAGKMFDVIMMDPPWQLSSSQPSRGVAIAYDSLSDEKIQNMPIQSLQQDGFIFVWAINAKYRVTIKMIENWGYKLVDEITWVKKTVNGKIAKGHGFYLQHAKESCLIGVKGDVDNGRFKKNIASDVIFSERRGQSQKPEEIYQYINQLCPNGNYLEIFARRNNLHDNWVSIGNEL
pKd: −log10 of the molar value.
result_type: pKd

[[record]]
compound = "C[S+](CC[C@H](N)C(=O)O)C[C@H]1O[C@@H](n2cnc3c(N)ncnc32)[C@H](O)[C@@H]1O (stereo partly shown)"
result_type = "pKd"
observed_result = 4.17


* * *

# measurement_target: TthMTA1c (MTA1-MTA9-p1-p2 quaternary complex) (Tetrahymena thermophila)
# Sequence (Q22GC0 entry or part of it, one chain of several): as the sequence (Q22GC0 57-428) above
# experimental_details: isothermal titration calorimetry
# experimental_setup: 25 °C, pH 7.5, 300 mM NaCl, no DNA
result_type: Kd (nM)

[[record]]
compound = "C[S+](CC[C@H](N)C(=O)O)C[C@H]1O[C@@H](n2cnc3c(N)ncnc32)[C@H](O)[C@@H]1O (stereo partly shown)"
unit_label = "nM"
observed_result = 2400


* * *

# measurement_target: TthMTA1-Tthp2 binary complex (ITC) (Tetrahymena thermophila, UniProt Q22GC0)
# Sequence (Q22GC0 entry or part of it, one chain of several): as the sequence (Q22GC0 57-428) above
# experimental_details: isothermal titration calorimetry
# experimental_setup: 25 °C, pH 7.5, 300 mM NaCl, no DNA
pKd: −log10 of the molar value.
result_type: pKd

[[record]]
molecule = "C[S+](CC[C@H](N)C(=O)O)C[C@H]1O[C@@H](n2cnc3c(N)ncnc32)[C@H](O)[C@@H]1O (stereo partly shown)"
result_type = "pKd"
observed_result = 4.35


// data source = paper PMC9174199
